system: Mus musculus; experiment: Anticonvulsant activity against maximal electroshock-induced seizures in ip dosed Mus musculus Swiss (mouse) administered 30 min before MES induction measured at phase 2; type: functional
observation_type: ED50 (mg/kg)
Write the answer as a number in mg/kg, unit excluded.

Input NC(=O)N1c2ccccc2C=Cc2ccccc21 [CARBAMAZEPINE] . Output ED50: 8.8

Input Fc1ccccc1COc1ccc2c(c1)CCCc1nncn1-2 . Output ED50: 19

Input CCC1(c2ccccc2)C(=O)NC(=O)NC1=O . Output ED50: 21.8

New cases:
Input CCCCCCCOc1ccc2c(c1)CCCc1nncn1-2 . Output ED50: 19.7

Input c1ccc(COc2ccc3c(c2)CCCc2nncn2-3)cc1 . Output ED50: 23.7

Input Clc1ccccc1COc1ccc2c(c1)CCCc1nncn1-2 . Output ED50: 20.5

Input Brc1ccc(COc2ccc3c(c2)CCCc2nncn2-3)cc1 . Output ED50: 27

Input CCCOc1ccc2c(c1)CCCc1nncn1-2 . Output ED50: 73.3

Input CCCCCCOc1ccc2c(c1)CCCc1nncn1-2 . Output ED50: 17.7

Input Fc1cccc(COc2ccc3c(c2)CCCc2nncn2-3)c1 . Output ED50: 27.4

Input Fc1ccc(COc2ccc3c(c2)CCCc2nncn2-3)cc1 . Output ED50: 27.4
